- experimental target: Adenosine receptor A1 (Rattus norvegicus, UniProt P25099)
- Sequence (P25099 whole entry): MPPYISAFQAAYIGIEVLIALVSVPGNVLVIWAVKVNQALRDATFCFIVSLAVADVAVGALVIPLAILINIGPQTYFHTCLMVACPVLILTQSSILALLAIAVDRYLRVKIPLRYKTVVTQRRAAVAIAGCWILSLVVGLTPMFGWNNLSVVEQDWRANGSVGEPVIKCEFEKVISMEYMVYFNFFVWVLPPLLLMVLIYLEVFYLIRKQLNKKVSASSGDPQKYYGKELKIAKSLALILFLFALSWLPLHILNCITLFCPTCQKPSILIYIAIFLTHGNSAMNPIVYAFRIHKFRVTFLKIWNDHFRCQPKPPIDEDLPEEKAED
- method description: Displacement of [3H]DPCPX from rat Adenosine A1 receptor of cortical membranes
- Format: cell membranes, Membrane
metric: Ki (µM)
One number for each entry, in µM.

Inquiry: What value of Ki has been recorded for this entry: `CO/C(=C\c1ccc(O)cc1)C(=O)O[C@@H]1[C@H](OC(=O)/C=C/c2c[nH]cn2)[C@@H](CSC)O[C@H]1n1cnc2c(N)ncnc21`
Reply text: 9.45

* * *

- experimental target: Adenosine receptor A3 (Homo sapiens, UniProt P0DMS8)
- Sequence (P0DMS8 whole entry): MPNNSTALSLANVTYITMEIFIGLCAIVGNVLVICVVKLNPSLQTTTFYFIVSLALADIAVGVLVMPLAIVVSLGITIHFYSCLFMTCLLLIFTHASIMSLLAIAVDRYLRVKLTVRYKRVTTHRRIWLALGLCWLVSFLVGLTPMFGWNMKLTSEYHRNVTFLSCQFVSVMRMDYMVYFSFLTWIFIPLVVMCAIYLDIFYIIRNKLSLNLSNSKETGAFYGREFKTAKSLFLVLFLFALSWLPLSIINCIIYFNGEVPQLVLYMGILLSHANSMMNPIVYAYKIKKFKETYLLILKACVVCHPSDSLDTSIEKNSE
- method description: Inhibition of forskolin-stimulated cAMP accumulation in chinese hamster ovary cell membranes expressing human adenosine A3 receptor
metric: pIC50
One number for each entry, as −log10 of the molar value.

INSERT INTO results (molecule, metric, reported) VALUES
  ('CO/C(=C\c1ccc(O)cc1)C(=O)O[C@@H]1[C@H](OC(=O)/C=C/c2c[nH]cn2)[C@@H](CSC)O[C@H]1n1cnc2c(N)ncnc21', 'pIC50', 5.17);

Could you now consider this next molecule?
Inquiry: What value of pIC50 has been recorded for this entry: CSC[C@H]1O[C@@H](n2cnc3c(N)ncnc32)[C@H](O)[C@@H]1O [METHYLTHIOADENOSINE]
Reply text: 4.15

* * *

Hi there, I'd appreciate the recorded pIC50 for every entry that follows.
- experimental target: Adenosine receptor A1 (Rattus norvegicus, UniProt P25099)
- Sequence (P25099 whole entry): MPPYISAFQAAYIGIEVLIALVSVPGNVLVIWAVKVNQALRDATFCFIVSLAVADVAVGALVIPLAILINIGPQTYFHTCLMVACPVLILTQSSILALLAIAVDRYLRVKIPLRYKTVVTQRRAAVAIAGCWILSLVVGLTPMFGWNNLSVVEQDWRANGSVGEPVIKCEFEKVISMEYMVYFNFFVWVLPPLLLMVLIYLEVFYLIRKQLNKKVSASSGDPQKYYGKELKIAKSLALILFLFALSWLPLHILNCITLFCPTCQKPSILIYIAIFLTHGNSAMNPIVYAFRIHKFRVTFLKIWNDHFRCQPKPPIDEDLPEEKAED
- method description: Displacement of [3H]DPCPX from adenosine A1 receptor of rat cortical membranes without GTP
- Type: cell membranes, Membrane
Answers are plain numbers, as −log10 of the molar value.

INSERT INTO measurements (compound, reported) VALUES
  ('Cn1cnc2c(N)ncnc21', 4.90),
  ('CO/C(=C\c1ccc(O)cc1)C(=O)O[C@@H]1[C@H](OC(=O)/C=C/c2c[nH]cn2)[C@@H](CSC)O[C@H]1n1cnc2c(N)ncnc21', 4.64),
  ('CSC[C@H]1O[C@@H](n2cnc3c(N)ncnc32)[C@H](O)[C@@H]1O', 6.17);

Could you now consider this next compound?
Inquiry: What value of pIC50 has been recorded for this entry: CC(=O)O[C@]1(C(C)=O)CC[C@H]2[C@@H]3C=C(Cl)C4=CC(=O)[C@@H]5C[C@@H]5[C@]4(C)[C@H]3CC[C@@]21C [CYPROTERONE ACETATE]
Reply text: 8.30

Just for reference, ChEMBL document CHEMBL1148450 is where these values come from.
